Assign inhibition at 10 µM to each entry below.
Target: Human gene recombinant 5-HT7 receptor (Homo sapiens (Human), UniProt P34969)
Sequence (P34969 whole entry): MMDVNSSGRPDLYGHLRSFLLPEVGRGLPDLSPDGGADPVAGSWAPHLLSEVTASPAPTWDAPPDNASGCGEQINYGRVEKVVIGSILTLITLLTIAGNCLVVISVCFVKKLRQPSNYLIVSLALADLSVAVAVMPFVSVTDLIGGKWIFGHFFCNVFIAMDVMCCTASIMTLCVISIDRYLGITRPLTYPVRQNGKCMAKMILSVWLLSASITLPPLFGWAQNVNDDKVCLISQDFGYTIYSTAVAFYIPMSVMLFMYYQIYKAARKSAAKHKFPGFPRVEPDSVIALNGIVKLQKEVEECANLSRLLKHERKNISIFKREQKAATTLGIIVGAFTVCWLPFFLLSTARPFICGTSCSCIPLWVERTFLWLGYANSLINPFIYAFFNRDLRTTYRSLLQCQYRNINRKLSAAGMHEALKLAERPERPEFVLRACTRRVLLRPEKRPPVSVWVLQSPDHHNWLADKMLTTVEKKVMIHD
Test: Measurement of binding affinity for serotonin 5-HT7 receptor ([3H]LSD radioligand binding)
Conditions: 10 μM compound; [3H]LSD 1 nM; 5-HT7 receptor membrane from CHO cells
Give bare numbers, in %.

Cc1ccc(-c2noc3c2CCNCC3)cc1	96.3
Cc1ccccc1-c1n[nH]c2c1CCNCC2	68.5
Clc1ccccc1-c1noc2c1CCNCC2	84.5
Fc1ccccc1-c1n[nH]c2c1CCNCC2	78.9
c1ccc(-c2n[nH]c3c2CCNCC3)cc1	84.2

Parameters: items (list). Returns: inhibition at 10 µM for each item.
1. Clc1cccc(-c2noc3c2CCNCC3)c1
2. Clc1cccc(-c2n[nH]c3c2CCNCC3)c1
3. Fc1ccccc1-c1noc2c1CCNCC2
4. Cc1cccc(-c2n[nH]c3c2CCNCC3)c1
5. Clc1ccccc1-c1n[nH]c2c1CCNCC2
6. Clc1ccc(-c2noc3c2CCNCC3)cc1

78.7
79.2
77.9
63
88.7
93.8

Batch request: inhibition at 10 µM per item, same order as input.
1. c1ccc(-c2noc3c2CCNCC3)cc1
2. Cc1ccccc1-c1noc2c1CCNCC2

1: 84.3; 2: 41.8

// each listed molecule needs a value for inhibition at 10 µM
1. Cc1ccc(-c2n[nH]c3c2CCNCC3)cc1
2. Fc1cccc(-c2noc3c2CCNCC3)c1
3. COc1ccccc1-c1noc2c1CCNCC2
4. Fc1cccc(-c2n[nH]c3c2CCNCC3)c1
5. Cc1cccc(-c2noc3c2CCNCC3)c1
6. Clc1ccc(-c2n[nH]c3c2CCNCC3)cc1

1: 94.2; 2: 57.5; 3: 87.9; 4: 72.9; 5: 76.3; 6: 96.4

# value lookup — system Human gene recombinant 5-HT7 receptor (Homo sapiens (Human), UniProt P34969), readout inhibition at 10 µM, item Fc1ccc(-c2noc3c2CCNCC3)cc1
94.6

###

Biological target: Human gene recombinant 5-HT7 receptor (Homo sapiens (Human), UniProt P34969)
Test: Measurement of binding affinity for serotonin 5-HT7 receptor ([3H]LSD radioligand binding)
Settings: [3H]LSD 1 nM; 5-HT7 receptor membrane from CHO cells; nonlinear regression
Property measured: Ki (nM)
Answers are plain numbers, in nM.

Please look at the items below and tell me Ki for each one, in order.
1. Clc1ccc(-c2n[nH]c3c2CCNCC3)cc1
2. Clc1ccccc1-c1noc2c1CCNCC2

30
425

For each of the items listed, what is its Ki?
1. Clc1ccc(-c2noc3c2CCNCC3)cc1
2. Fc1ccccc1-c1n[nH]c2c1CCNCC2
3. Cc1ccc(-c2n[nH]c3c2CCNCC3)cc1
4. Fc1cccc(-c2n[nH]c3c2CCNCC3)c1
5. Cc1ccccc1-c1n[nH]c2c1CCNCC2
6. Cc1cccc(-c2n[nH]c3c2CCNCC3)c1
7. Cc1cccc(-c2noc3c2CCNCC3)c1

[70, 714, 47, 1240, 881, 1440, 506]

###

Target: Human gene recombinant 5-HT7 receptor (Homo sapiens (Human), UniProt P34969)
Assay: Measurement of binding affinity for serotonin 5-HT7 receptor ([3H]LSD radioligand binding)
Details: [3H]LSD 1 nM; 5-HT7 receptor membrane from CHO cells; nonlinear regression
Property measured: Ki (nM)
Answers are plain numbers, in nM.

In the examples that follow, each entry is paired with its recorded Ki.
Clc1ccccc1-c1n[nH]c2c1CCNCC2	386
Clc1cccc(-c2noc3c2CCNCC3)c1	369
Cc1ccc(-c2noc3c2CCNCC3)cc1	16
c1ccc(-c2n[nH]c3c2CCNCC3)cc1	322

Hi! Can you tell me Ki for each of these molecules?
1. c1ccc(-c2noc3c2CCNCC3)cc1
2. Fc1ccccc1-c1noc2c1CCNCC2
3. Clc1cccc(-c2n[nH]c3c2CCNCC3)c1
4. Fc1ccc(-c2noc3c2CCNCC3)cc1
5. COc1ccccc1-c1noc2c1CCNCC2
6. Fc1cccc(-c2noc3c2CCNCC3)c1

1. 319
2. 366
3. 883
4. 53
5. 303
6. 1410
